Where do these numbers come from? They come from the supplement of paper PMC10702517.

assay: chemical recovery from spiked human plasma; higher = better extraction; details: pooled human plasma; extraction method: SPE only (HLB 96-well), PES comparison experiment
So basically: chemical recovery at 50% or higher? That is Criterion met. Lower than 50%? That is Criterion not met.

Reference set (10 entries):
| Compound | Answer Label |
| --- | --- |
| Cc1nccn1CC1CCc2c(c3ccccc3n2C)C1=O (stereo not given) | Criterion not met |
| CCOP(=S)(OCC)SCSP(=S)(OCC)OCC | Criterion not met |
| O=C(O)CCC(=O)c1ccc(F)cc1 | Criterion met |
| CCCNCCOc1c(Cl)cc(Cl)cc1Cl | Criterion not met |
| CC(C)N(C(=O)COc1nnc(C(F)(F)F)s1)c1ccc(F)cc1 | Criterion met |
| CC/C(=N\OC/C=C/Cl)C1=C(O)CC(C2CCOCC2)CC1=O (stereo not given) | Criterion met |
| Cc1c(C(C)C)c(=O)n(-c2ccccc2)n1C | Criterion not met |
| CO/N=C(/C(=O)OC)c1ccccc1CO/N=C(\C)c1cccc(C(F)(F)F)c1 | Criterion not met |
| COC(=O)Nc1nc2cc(C(=O)c3ccccc3)ccc2[nH]1 | Criterion not met |
| CCCOP(=O)(OCCC)OCCC [Tripropyl phosphate] | Criterion not met |

Given the entry "Oc1c(Br)cc(Cl)cc1Cc1cc(Cl)cc(Br)c1O" , answer whether its chemical recovery meets or surpasses 50%. Criterion not met

Please answer likewise for "c1ccc(/N=N/c2ccccc2)cc1" Criterion not met

Please answer likewise for C1CCC2CCCCC2C1 (stereo not given) [Decahydronaphthalene] Criterion not met

Please answer likewise for CC(C)(C)C(O)C(Oc1ccc(Cl)cc1)n1cncn1 (stereo not given) Criterion not met

====

assay: chemical recovery into PDMS from spiked human plasma; higher = better extraction; conditions: pooled human plasma; extraction method: PES with PDMS; equilibration time (d): 3
So basically: chemical recovery into PDMS at 20% or higher? That is satisfied. Lower than 20%? That is not satisfied.

Reference set (4 entries):
| Molecule | Answer Label |
| --- | --- |
| CC(Cc1ccc(C(C)(C)C)cc1)CN1CCCCC1 (stereo not given) | not satisfied |
| Clc1cc(Cl)c(-c2ccc(Cl)c(Cl)c2Cl)cc1Cl | satisfied |
| O=c1[nH]c2ccccc2s1 [2-Hydroxybenzothiazole] | not satisfied |
| CCCCCCCCCCCC(=O)N(CCO)CCO [Lauryl diethanolamide] | satisfied |

Here is another molecule to look at.
Given the entry "c1ccc2c(c1)-c1cccc3cccc-2c13" , answer whether its chemical recovery into PDMS meets or surpasses 20%. satisfied

====

experiment: chemical recovery into PDMS from spiked human plasma; higher = better extraction; conditions: pooled human plasma; extraction method: PES with PDMS; equilibration time (d): 3
So basically: chemical recovery into PDMS at 40% or higher? That is t. Lower than 40%? That is f.

| Molecule | Answer Label |
| --- | --- |
| Cc1nc(N(C)C)nc(OC(=O)N(C)C)c1C | f |

Given the entry CC1(C)[C@H](C=C(Cl)Cl)[C@H]1C(=O)OCc1c(F)c(F)cc(F)c1F [Transfluthrin] , answer whether its chemical recovery into PDMS meets or surpasses 40%. t

====

test: chemical recovery into PDMS from spiked human plasma; higher = better extraction; conditions: pooled human plasma; extraction method: PES with PDMS; equilibration time (d): 3
chemical recovery into PDMS listing for selected compounds.
Respond with the bare value in %.

Please review the entries below; each comes with its answer.
| Compound | Quantitative Result |
| --- | --- |
| CS(=O)(=O)c1ccccc1 | 98.5 |
| CCc1cccc(C)c1N(C(=O)C(=O)O)C(C)COC (stereo not drawn) | 21.5 |
| Cc1cccc(C)c1N(Cn1cccn1)C(=O)C[S+](C)[O-] (stereo not drawn) | 9.79 |
| CCC(=O)O[C@]1(C(=O)CCl)[C@@H](C)C[C@H]2[C@@H]3CCC4=CC(=O)C=C[C@]4(C)[C@@]3(F)[C@@H](O)C[C@@]21C [Clobetasol propionate] | 36.9 |
| c1ccc2c(c1)-c1cccc3c1c-2cc1ccccc13 | 93.1 |
| Oc1ccc(Cl)cc1Cc1cc(Cl)ccc1O | 1.88 |

# input compound: O=P(Oc1ccccc1)(Oc1ccccc1)Oc1ccccc1 [Triphenylphosphate] ; wanted: its chemical recovery into PDMS 43.5

Please answer likewise for "CCNc1nc(Cl)nc(NCC)n1" 35.8
